Target: T1, mouse PRLR construct with an HA tag on HEK293/mPRLR cells (mouse, UniProt Q08501 20-608)
T1 construct: whole, on cells; stably transfected into HEK293
T1 sequence (looked up): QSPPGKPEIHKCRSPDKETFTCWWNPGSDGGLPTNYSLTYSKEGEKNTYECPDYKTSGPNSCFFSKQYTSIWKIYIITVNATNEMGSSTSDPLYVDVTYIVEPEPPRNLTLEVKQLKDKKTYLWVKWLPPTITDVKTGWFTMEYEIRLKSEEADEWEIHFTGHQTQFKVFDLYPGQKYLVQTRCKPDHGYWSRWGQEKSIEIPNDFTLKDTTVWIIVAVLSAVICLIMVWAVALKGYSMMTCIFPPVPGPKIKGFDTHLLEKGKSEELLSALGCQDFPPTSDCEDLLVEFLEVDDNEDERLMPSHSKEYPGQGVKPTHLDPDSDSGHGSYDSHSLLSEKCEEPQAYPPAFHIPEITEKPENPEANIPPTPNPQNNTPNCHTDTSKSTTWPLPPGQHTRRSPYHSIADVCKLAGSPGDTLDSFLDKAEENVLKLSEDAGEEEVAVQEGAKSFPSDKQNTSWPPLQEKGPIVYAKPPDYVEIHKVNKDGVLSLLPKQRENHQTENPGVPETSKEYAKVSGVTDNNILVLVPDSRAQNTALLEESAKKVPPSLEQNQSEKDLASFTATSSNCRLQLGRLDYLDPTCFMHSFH
Experiment: FACS on HEK293/mPRLR cells
METRIC: FACS Cell Binding (Fold Above Background) (fold)
Write down the numeric answer in fold and omit the unit.

### Prompt Look up FACS Cell Binding (Fold Above Background) of H1H6967N (antibody, human IgG1, V domains shown, also called H2M6967N) VH: EVQLVESGGDLVHPGRSLRLSCAASGFPFDEYAMHWVRQVPGKGLEWVSGISWSNNNIGYADSVKGRFTISRDNAKNSLYLQMNSLRPEDTAFYYCAKSGIFDSWGQGTLVTVSS VL: EIVMTQSPATLSVSPGERATLSCRASQSVSRDLAWYQQKPGQAPRLLIHGASTRATGIPARFSGSGSGAEFTLIISSLQSEDFAVYYCQQYNNWPLTFGGGTKVEIK and report it.
### Response 2

More entries:
### Prompt Identify measured FACS Cell Binding (Fold Above Background) associated with H1H6960N (antibody, human IgG1, V domains shown, also called H2M6960N) VH: EVQLVESGGGLVKPGGSLRLSCAASGITFSSYSMNWVRQAPGKGLEWVSSISTRSSLIHYADSVKGRFTISRDNAKNSLYLQMNSLRDEDTAVYYCARWDAAAAFDYWGQGTLVIVSS VL: DIQLTQSPSFLSASVGDRVTITCWASQGISSYLAWYQQKPGKAPKLLIYVASTLQSGVPSRFSGSGSGTEFTLTISSLQPEDFATYFCQQLNSYPLTFGGGTKVEIK
### Response 1

### Prompt For H1H6800P (antibody, human IgG1, V domains shown, human IgG1 Fc (H1H)) VH: EVQLVESGGGLVQPGRSLRLSCAASGFTFDGYAMHWVRQGPGKGLEWVSGISWYSDTLGYADSVKGRFTISRDNAKNSLYLQMNSLRTEDTAFYYCAKISSSGWAFDYWGQGTLVTVSS VL: EIVLTQSPGTLSLSPGERATLSCRASHSVSSAYLAWYQQKPGQTPRLLIYGTSSRATGIPDRFSGSGSGTDFTLTISRLEPEDFAVYYCQQYGSSPLFTFGPGTKVDIK , write its FACS Cell Binding (Fold Above Background).
### Response 1
